Assay: Cytotoxicity against HGPRT deficient 6-thioguanine-resistant MDCK cells assessed as change in cell morphology after 3 days by microscopic analysis
Format: cell-based, Canis lupus familiaris
Conditions: dog

molecule	reading.unit	relation.operator	MCC at 72 h
CC(=O)O[C@@H]1[C@H](OC(C)=O)[C@@H](COP2(=O)OCc3cccc(C)c3O2)O[C@H]1n1ccnc(C(N)=O)c1=O (stereo partly specified)	µM	=	400
CCCCCCCCCCCCCCC(=O)Oc1ccc(COP(=O)(OCc2ccc(OC(=O)CCCC)cc2)OP(=O)(O)OP(=O)(O)OC[C@H]2O[C@@H](n3ccnc(C(N)=O)c3=O)[C@H](O)[C@@H]2O)cc1.CCN(CC)CC.CCN(CC)CC (stereo partly specified)	µM	=	16
CCCCCCCCCC(=O)Oc1ccc(COP(=O)(OCc2ccc(OC(=O)CCCCCCCCC)cc2)OP(=O)(O)OC[C@H]2O[C@@H](n3ccnc(C(N)=O)c3=O)[C@H](O)[C@@H]2O)cc1.CCN(CC)CC	µM	=	22
NC(=O)c1nc(Br)cn([C@@H]2O[C@H](CO)[C@@H](O)[C@H]2O)c1=O	µM	>	250
CCCCCCCCCC(=O)Oc1ccc(COP(=O)(OCc2ccc(OC(=O)CCCCCCCCC)cc2)OP(=O)(O)OP(=O)(O)OC[C@H]2O[C@@H](n3ccnc(C(N)=O)c3=O)[C@H](O)[C@@H]2O)cc1.CCN(CC)CC.CCN(CC)CC	µM	=	13
NC(=O)c1ncn([C@@H]2O[C@H](CO)[C@@H](O)[C@H]2O)n1	µM	=	35

---

Assay: Cytotoxicity against HGPRT deficient 6-thioguanine-resistant MDCK cells assessed as change in cell morphology after 3 days by microscopic analysis
Format: cell-based, Canis lupus familiaris
Settings: dog
Below, each entry is listed alongside its reported MCC at 72 h.

molecule	MCC at 72 h
Cc1cccc2c1OP(=O)(OC[C@H]1O[C@@H](n3ccnc(C(N)=O)c3=O)[C@H](O)[C@@H]1O)OC2 (some centres undefined)	> 400 µM
NC(=O)c1nccnc1O	> 250 µM
NC(=O)c1nccn([C@@H]2O[C@H](CO)[C@@H](O)[C@H]2O)c1=O	> 250 µM
NC(=O)c1nc(Br)cnc1O	> 250 µM

---

Assay: Cytotoxicity against MDCK cells assessed as reduction in cell viability after 3 days by formazan-based MTS assay
Design: species or system Canis lupus familiaris
Details: dog
Readings of CC50 at 72 h for the listed compounds
quantity.kind: CC50 at 72 h

compound	test.result
CC(=O)O[C@@H]1[C@H](OC(C)=O)[C@@H](COP2(=O)OCc3cccc(C)c3O2)O[C@H]1n1ccnc(C(N)=O)c1=O (stereo partly drawn)	> 400 µM
CCCCCCCCCCCCCCC(=O)Oc1ccc(COP(=O)(OCc2ccc(OC(=O)CCCC)cc2)OP(=O)(O)OC[C@H]2O[C@@H](n3cc(F)nc(C(N)=O)c3=O)[C@H](O)[C@@H]2O)cc1.CCN(CC)CC (stereo partly drawn)	35 µM
CCCCCCCCCCCCCCC(=O)Oc1ccc(COP(=O)(OCc2ccc(OC(=O)CCCC)cc2)OP(=O)(O)OC[C@H]2O[C@@H](n3ccnc(C(N)=O)c3=O)[C@H](O)[C@@H]2O)cc1.CCN(CC)CC (stereo partly drawn)	31 µM
CCCCCCCCCC(=O)Oc1ccc(COP(=O)(OCc2ccc(OC(=O)CCCCCCCCC)cc2)OP(=O)(O)OC[C@H]2O[C@@H](n3ccnc(C(N)=O)c3=O)[C@H](O)[C@@H]2O)cc1.CCN(CC)CC	> 100 µM
CCCCCCCCCC(=O)Oc1ccc(COP(=O)(OCc2ccc(OC(=O)CCCCCCCCC)cc2)OP(=O)(O)OP(=O)(O)OC[C@H]2O[C@@H](n3ccnc(C(N)=O)c3=O)[C@H](O)[C@@H]2O)cc1.CCN(CC)CC.CCN(CC)CC	30 µM
Cc1cccc2c1OP(=O)(OC[C@H]1O[C@@H](n3ccnc(C(N)=O)c3=O)[C@H](O)[C@@H]1O)OC2 (stereo partly drawn)	> 400 µM
NC(=O)c1nccnc1O	> 250 µM
NC(=O)c1nc(Br)cnc1O	> 250 µM
CCCCCCCCCCCCCCC(=O)Oc1ccc(COP(=O)(OCc2ccc(OC(=O)CCCC)cc2)OP(=O)(O)OP(=O)(O)OC[C@H]2O[C@@H](n3ccnc(C(N)=O)c3=O)[C@H](O)[C@@H]2O)cc1.CCN(CC)CC.CCN(CC)CC (stereo partly drawn)	38 µM
NC(=O)c1nc(F)c[nH]c1=O	> 250 µM
NC(=O)c1nc(Br)cn([C@@H]2O[C@H](CO)[C@@H](O)[C@H]2O)c1=O	> 250 µM
NC(=O)c1nccn([C@@H]2O[C@H](CO)[C@@H](O)[C@H]2O)c1=O	> 250 µM
NC(=O)c1ncn([C@@H]2O[C@H](CO)[C@@H](O)[C@H]2O)n1 [RIBAVIRIN]	> 100 µM

---

MCC at 72 h reference
Assay: Cytotoxicity against MDCK cells assessed as change in cell morphology after 3 days by microscopic analysis
Format: cell-based, Canis lupus familiaris
Details: dog
quantity.kind: MCC at 72 h

compound	test.result
CC(=O)O[C@@H]1[C@H](OC(C)=O)[C@@H](COP2(=O)OCc3cccc(C)c3O2)O[C@H]1n1ccnc(C(N)=O)c1=O (some centres not stated)	400 µM
CCCCCCCCCCCCCCC(=O)Oc1ccc(COP(=O)(OCc2ccc(OC(=O)CCCC)cc2)OP(=O)(O)OC[C@H]2O[C@@H](n3ccnc(C(N)=O)c3=O)[C@H](O)[C@@H]2O)cc1.CCN(CC)CC (some centres not stated)	21 µM
CCCCCCCCCC(=O)Oc1ccc(COP(=O)(OCc2ccc(OC(=O)CCCCCCCCC)cc2)OP(=O)(O)OC[C@H]2O[C@@H](n3ccnc(C(N)=O)c3=O)[C@H](O)[C@@H]2O)cc1.CCN(CC)CC	37 µM
CCCCCCCCCCCCCCC(=O)Oc1ccc(COP(=O)(OCc2ccc(OC(=O)CCCC)cc2)OP(=O)(O)OP(=O)(O)OC[C@H]2O[C@@H](n3ccnc(C(N)=O)c3=O)[C@H](O)[C@@H]2O)cc1.CCN(CC)CC.CCN(CC)CC (some centres not stated)	16 µM
NC(=O)c1nc(Br)cnc1O	> 250 µM
Cc1cccc2c1OP(=O)(OC[C@H]1O[C@@H](n3ccnc(C(N)=O)c3=O)[C@H](O)[C@@H]1O)OC2 (some centres not stated)	> 400 µM
NC(=O)c1nccnc1O	> 250 µM

---

Test system: MDCK
Test: Prodrug activation in MDCK cells assessed as T-1105-RMP formation at 450 uM up to 4 hrs by RP-HPLC-UV analysis
Type: cell-based, Canis lupus familiaris
Details: dog

compound	system	Drug metabolism
CCCCCCCCCCCCCCC(=O)Oc1ccc(COP(=O)(OCc2ccc(OC(=O)CCCC)cc2)OP(=O)(O)OC[C@H]2O[C@@H](n3ccnc(C(N)=O)c3=O)[C@H](O)[C@@H]2O)cc1.CCN(CC)CC (some centres undefined)	MDCK	Metabolite_Detected
CCCCCCCCCCCCCCC(=O)Oc1ccc(COP(=O)(OCc2ccc(OC(=O)CCCC)cc2)OP(=O)(O)OP(=O)(O)OC[C@H]2O[C@@H](n3ccnc(C(N)=O)c3=O)[C@H](O)[C@@H]2O)cc1.CCN(CC)CC.CCN(CC)CC (some centres undefined)	MDCK	Metabolite_Detected
CCCCCCCCCC(=O)Oc1ccc(COP(=O)(OCc2ccc(OC(=O)CCCCCCCCC)cc2)OP(=O)(O)OP(=O)(O)OC[C@H]2O[C@@H](n3ccnc(C(N)=O)c3=O)[C@H](O)[C@@H]2O)cc1.CCN(CC)CC.CCN(CC)CC	MDCK	Metabolite_Detected
CCCCCCCCCC(=O)Oc1ccc(COP(=O)(OCc2ccc(OC(=O)CCCCCCCCC)cc2)OP(=O)(O)OC[C@H]2O[C@@H](n3ccnc(C(N)=O)c3=O)[C@H](O)[C@@H]2O)cc1.CCN(CC)CC	MDCK	Metabolite_Detected

---

Parameter IC50: see the listing below.
Experiment: Inhibition of Influenza virus B/Ned/537/05 RNA dependent RNA polymerase using ApG primer [adenyl (3'-5') guanosine] and [8-3H]GTP after 1 hr by filter-based assay
quantity.kind: IC50

smiles.str	quantity.kind	test.result
NC(=O)c1nccn([C@@H]2O[C@H](COP(=O)(O)OP(=O)(O)OP(=O)(O)O)[C@@H](O)[C@H]2O)c1=O	IC50	0.69 µM
CCCCCCCCCC(=O)Oc1ccc(COP(=O)(OCc2ccc(OC(=O)CCCCCCCCC)cc2)OP(=O)(O)OC[C@H]2O[C@@H](n3ccnc(C(N)=O)c3=O)[C@H](O)[C@@H]2O)cc1.CCN(CC)CC	IC50	49 to 126 µM
CCCCCCCCCC(=O)Oc1ccc(COP(=O)(OCc2ccc(OC(=O)CCCCCCCCC)cc2)OP(=O)(O)OP(=O)(O)OC[C@H]2O[C@@H](n3ccnc(C(N)=O)c3=O)[C@H](O)[C@@H]2O)cc1.CCN(CC)CC.CCN(CC)CC	IC50	49 to 126 µM
